# Procedure Text: Inhibition of sialyltransferase in mouse B16F10 cells assessed as decrease in lectin binding after 3 days by biotinylated MAL2 lectin and streptavidin-PE based flow cytometry
# Assay type: cell-based
pEC50: −log10 of the molar value.
Attribute Measured: pEC50

Compound: COCCOC(=O)N[C@H]1[C@H]([C@H](OC(C)=O)[C@@H](COC(C)=O)OC(C)=O)OC(OC(C)=O)(C(=O)OC)[C@H](F)[C@@H]1OC(C)=O (stereo not given in full)
pEC50: 4.59

a = COC(=O)C1(OC(C)=O)O[C@@H]([C@H](OC(C)=O)[C@@H](COC(C)=O)OC(C)=O)[C@H](NC(=O)CCl)[C@@H](OC(C)=O)[C@H]1F (stereo not given in full)
b = COC(=O)C1(OC(C)=O)O[C@@H]([C@H](OC(C)=O)[C@@H](COC(C)=O)OC(C)=O)[C@H](NC(=O)OCC(Cl)(Cl)Cl)[C@@H](OC(C)=O)[C@H]1F (stereo not given in full)
c = CCCCOC(=O)N[C@H]1[C@H]([C@H](OC(C)=O)[C@@H](COC(C)=O)OC(C)=O)OC(OC(C)=O)(C(=O)OC)[C@H](F)[C@@H]1OC(C)=O (stereo not given in full)
d = COC(=O)C1(OC(C)=O)O[C@@H]([C@H](OC(C)=O)[C@@H](COC(C)=O)OC(C)=O)[C@H](NC(=O)OCCF)[C@@H](OC(C)=O)[C@H]1F (stereo not given in full)
Order the items by recorded pEC50; the first position goes to the largest value. State the ranking by listing the labels in the requested order.
d, b, c, a
(d: 5.90, b: 5.42, c: 5.13, a: 4.75)

* * *

Each record here notes measured TIME.
# Test system: B16-F10
# Procedure Text: Inhibition of sialyltransferase in mouse B16-F10 cells assessed as recovery time for sialylation at 51.2 uM pretreated for 3 days followed by washing and re-seeding and measured after 6 days by biotinylated MAL2 lectin-based flow cytometry
# Type: cell-based

Molecule: COC(=O)C1(OC(C)=O)O[C@@H]([C@H](OC(C)=O)[C@@H](COC(C)=O)OC(C)=O)[C@H](NC(C)=O)[C@@H](OC(C)=O)[C@H]1F (some centres not stated)
Measured Result: 48 to 72 h

What value of TIME has been recorded for this entry: COC(=O)C1(OC(C)=O)O[C@@H]([C@H](OC(C)=O)[C@@H](COC(C)=O)OC(C)=O)[C@H](NC(=O)CN=[N+]=[N-])[C@@H](OC(C)=O)[C@H]1F (some centres not stated)
48 to 72 h

What value of TIME has been recorded for this entry: CCOC(=O)N[C@H]1[C@H]([C@H](OC(C)=O)[C@@H](COC(C)=O)OC(C)=O)OC(OC(C)=O)(C(=O)OC)[C@H](F)[C@@H]1OC(C)=O (some centres not stated)
120 to 144 h

What value of TIME has been recorded for this entry: COC(=O)C1(OC(C)=O)O[C@@H]([C@H](OC(C)=O)[C@@H](COC(C)=O)OC(C)=O)[C@H](NC(=O)OCC(C)C)[C@@H](OC(C)=O)[C@H]1F (some centres not stated)
120 to 144 h

What value of TIME has been recorded for this entry: C=CCOC(=O)N[C@H]1[C@H]([C@H](OC(C)=O)[C@@H](COC(C)=O)OC(C)=O)OC(OC(C)=O)(C(=O)OC)[C@H](F)[C@@H]1OC(C)=O (some centres not stated)
120 to 144 h

What value of TIME has been recorded for this entry: COC(=O)N[C@H]1[C@H]([C@H](OC(C)=O)[C@@H](COC(C)=O)OC(C)=O)OC(OC(C)=O)(C(=O)OC)[C@H](F)[C@@H]1OC(C)=O (some centres not stated)
120 to 144 h

What value of TIME has been recorded for this entry: COC(=O)C1(OC(C)=O)O[C@@H]([C@H](OC(C)=O)[C@@H](COC(C)=O)OC(C)=O)[C@H](NC(=O)OC(C)(C)C)[C@@H](OC(C)=O)[C@H]1F (some centres not stated)
120 to 144 h

What value of TIME has been recorded for this entry: COC(=O)C1(OC(C)=O)O[C@@H]([C@H](OC(C)=O)[C@@H](COC(C)=O)OC(C)=O)[C@H](NC(=O)CCl)[C@@H](OC(C)=O)[C@H]1F (some centres not stated)
48 to 72 h

What value of TIME has been recorded for this entry: C#CCCC(=O)N[C@H]1[C@H]([C@H](OC(C)=O)[C@@H](COC(C)=O)OC(C)=O)OC(OC(C)=O)(C(=O)OC)[C@H](F)[C@@H]1OC(C)=O (some centres not stated)
48 to 72 h

What value of TIME has been recorded for this entry: COC(=O)C1(OC(C)=O)O[C@@H]([C@H](OC(C)=O)[C@@H](COC(C)=O)OC(C)=O)[C@H](NC(=O)C(F)(F)F)[C@@H](OC(C)=O)[C@H]1F (some centres not stated)
48 to 72 h

What value of TIME has been recorded for this entry: COC(=O)C1(OC(C)=O)O[C@@H]([C@H](OC(C)=O)[C@@H](COC(C)=O)OC(C)=O)[C@H](NC(=O)COC(C)=O)[C@@H](OC(C)=O)[C@H]1F (some centres not stated)
48 to 72 h

What value of TIME has been recorded for this entry: C#CCOC(=O)N[C@H]1[C@H]([C@H](OC(C)=O)[C@@H](COC(C)=O)OC(C)=O)OC(OC(C)=O)(C(=O)OC)[C@H](F)[C@@H]1OC(C)=O (some centres not stated)
120 to 144 h

* * *

# Test system: B16-F10
# Procedure Text: Effect on total cell surface glycosylation in mouse B16F10 cells assessed as inhibition of biotinylated AAL-lectin binding at 102.4 uM after 3 days by flow cytometry
# Assay type: cell-based
# Run Conditions: b16-f10, 72 h
Attribute Measured: Activity

Molecule: C#CCCC(=O)N[C@H]1[C@H]([C@H](OC(C)=O)[C@@H](COC(C)=O)OC(C)=O)OC(OC(C)=O)(C(=O)OC)[C@H](F)[C@@H]1OC(C)=O (stereo partly drawn)
Attribute Measured: Activity
Measured Result: Non-Toxic
//
Molecule: COC(=O)N[C@H]1[C@H]([C@H](OC(C)=O)[C@@H](COC(C)=O)OC(C)=O)OC(OC(C)=O)(C(=O)OC)[C@H](F)[C@@H]1OC(C)=O (stereo partly drawn)
Attribute Measured: Activity
Measured Result: Non-Toxic
//
Molecule: COC(=O)C1(OC(C)=O)O[C@@H]([C@H](OC(C)=O)[C@@H](COC(C)=O)OC(C)=O)[C@H](NC(=O)OC(C)(C)C)[C@@H](OC(C)=O)[C@H]1F (stereo partly drawn)
Attribute Measured: Activity
Measured Result: Non-Toxic

* * *

# System: B16-F10
# Procedure Text: Effect on total cell surface glycosylation in mouse B16F10 cells assessed as inhibition of biotinylated AAL-lectin binding at 102.4 uM after 3 days by flow cytometry
# Format: cell-based
# Run Conditions: b16-f10, 72 h
Attribute Measured: Activity

Consider the reported Activity for these compounds:
Compound: COC(=O)C1(OC(C)=O)O[C@@H]([C@H](OC(C)=O)[C@@H](COC(C)=O)OC(C)=O)[C@H](NC(=O)COC(C)=O)[C@@H](OC(C)=O)[C@H]1F (stereo partly drawn)
Measured Result: Non-Toxic
//
Compound: COC(=O)C1(OC(C)=O)O[C@@H]([C@H](OC(C)=O)[C@@H](COC(C)=O)OC(C)=O)[C@H](NC(=O)OCC(C)C)[C@@H](OC(C)=O)[C@H]1F (stereo partly drawn)
Measured Result: Non-Toxic
//
Compound: COC(=O)C1(OC(C)=O)O[C@@H]([C@H](OC(C)=O)[C@@H](COC(C)=O)OC(C)=O)[C@H](NC(=O)CN=[N+]=[N-])[C@@H](OC(C)=O)[C@H]1F (stereo partly drawn)
Measured Result: Non-Toxic
//
Compound: COC(=O)C1(OC(C)=O)O[C@@H]([C@H](OC(C)=O)[C@@H](COC(C)=O)OC(C)=O)[C@H](NC(C)=O)[C@@H](OC(C)=O)[C@H]1F (stereo partly drawn)
Measured Result: Non-Toxic
//
Compound: C#CCOC(=O)N[C@H]1[C@H]([C@H](OC(C)=O)[C@@H](COC(C)=O)OC(C)=O)OC(OC(C)=O)(C(=O)OC)[C@H](F)[C@@H]1OC(C)=O (stereo partly drawn)
Measured Result: Non-Toxic
//
Compound: COC(=O)C1(OC(C)=O)O[C@@H]([C@H](OC(C)=O)[C@@H](COC(C)=O)OC(C)=O)[C@H](NC(=O)C(F)(F)F)[C@@H](OC(C)=O)[C@H]1F (stereo partly drawn)
Measured Result: Non-Toxic
//
Compound: C=CCOC(=O)N[C@H]1[C@H]([C@H](OC(C)=O)[C@@H](COC(C)=O)OC(C)=O)OC(OC(C)=O)(C(=O)OC)[C@H](F)[C@@H]1OC(C)=O (stereo partly drawn)
Measured Result: Non-Toxic

Let us examine a further case.
What value of Activity has been recorded for this entry: CCOC(=O)N[C@H]1[C@H]([C@H](OC(C)=O)[C@@H](COC(C)=O)OC(C)=O)OC(OC(C)=O)(C(=O)OC)[C@H](F)[C@@H]1OC(C)=O (stereo partly drawn)
Non-Toxic
